Listing of entries alongside the reported EC50.
molecular target: cynomolgus LIV-1 (cynomolgus, UniProt A0A2K5WH46 30-741); assay: FACS, cyno LIV-1 cells
Sequence (A0A2K5WH46 entry or part of it): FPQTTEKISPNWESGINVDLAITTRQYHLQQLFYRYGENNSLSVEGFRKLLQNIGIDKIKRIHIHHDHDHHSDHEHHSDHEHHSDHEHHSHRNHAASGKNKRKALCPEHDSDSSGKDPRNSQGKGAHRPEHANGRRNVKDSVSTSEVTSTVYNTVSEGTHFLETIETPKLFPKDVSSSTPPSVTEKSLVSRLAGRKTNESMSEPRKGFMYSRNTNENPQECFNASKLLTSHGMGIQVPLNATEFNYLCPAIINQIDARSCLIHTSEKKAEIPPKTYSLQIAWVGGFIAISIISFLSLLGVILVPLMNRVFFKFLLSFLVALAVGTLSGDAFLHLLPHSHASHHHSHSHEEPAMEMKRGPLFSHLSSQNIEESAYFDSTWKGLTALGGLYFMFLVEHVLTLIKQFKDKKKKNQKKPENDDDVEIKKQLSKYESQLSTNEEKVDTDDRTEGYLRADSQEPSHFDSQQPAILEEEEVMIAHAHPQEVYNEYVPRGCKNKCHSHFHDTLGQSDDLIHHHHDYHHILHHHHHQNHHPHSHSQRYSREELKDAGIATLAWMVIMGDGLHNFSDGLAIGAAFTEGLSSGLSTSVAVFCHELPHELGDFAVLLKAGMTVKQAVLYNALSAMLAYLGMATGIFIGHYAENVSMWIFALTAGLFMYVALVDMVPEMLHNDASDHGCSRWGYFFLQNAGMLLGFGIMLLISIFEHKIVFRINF
EXPERIMENTAL_READOUT: EC50

| BINDER | RECORDED_MEASUREMENT |
| --- | --- |
| 290F10G10.p1.Z17 (antibody, V domains shown) VH: EIQLVQSGAEVKKPGASVKVSCKASGYTFTSYWIHWVREAPGQGLEWIGTIYPGDADTRSTQKFKDKATVTADKSTSTVYMELSSLRSEDTAVYYCTRSLIHDDYDKYYFDYWGQGTTVTVSS VL: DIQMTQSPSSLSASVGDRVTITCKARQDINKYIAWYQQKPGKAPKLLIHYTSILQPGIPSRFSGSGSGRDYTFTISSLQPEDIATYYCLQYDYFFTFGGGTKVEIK | 0.51 nM |
| 290F10G10.p1.Z3 (antibody, V domains shown) VH: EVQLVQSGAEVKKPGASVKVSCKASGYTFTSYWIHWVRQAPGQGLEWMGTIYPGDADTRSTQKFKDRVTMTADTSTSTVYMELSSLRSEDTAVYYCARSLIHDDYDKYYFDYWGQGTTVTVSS VL: DIQMTQSPSSLSASVGDRVTITCKARQDINKYIAWYQHKPGKGPKLLIHYTSILQPGIPSRFSGSGSGRDYTFTISSLQPEDIATYYCLQYDYFFTFGGGTKVEIK | 0.4 nM |
| 290F10G10.p1.Z6 (antibody, V domains shown) VH: EVQLVQSGAEVKKPGASVKVSCKASGYTFTSYWIHWVRQAPGQGLEWMGTIYPGDADTRSTQKFKDRVTVTADKSTSTVYMELSSLRSEDTAVYYCARSLIHDDYDKYYFDYWGQGTTVTVSS VL: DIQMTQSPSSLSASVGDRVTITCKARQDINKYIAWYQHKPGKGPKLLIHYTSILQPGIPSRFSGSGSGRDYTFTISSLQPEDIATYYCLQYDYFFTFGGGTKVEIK | 0.46 nM |

Values were extracted from patent US20240325555A1.
